# experiment: NCI Yeast Anticancer Drug Screen. Data for the mec2-1 strain (AID 157)
# conditions: S. cerevisiae mec2-1 strain, at 50.0 µM, stronger effect = higher value
This is part of a sample that, as a whole, favours compounds with a hit. Of some 79,000 tested, about 15% had one in any assay. Where a SMILES comes first, the peptide text is derived from it. The star is where a group is joined. Cbz = O=C(OCc1ccccc1)*
As shown below, each of these compounds has a reported growth inhibition value.
parameter_measured: growth inhibition (%)

INSERT INTO measurements (compound, parameter_measured, value_reported) VALUES
  ('CC(C)(C)SC(=S)SCC(=O)c1cc2ccccc2o1', 'growth inhibition', 3.5),
  ('CCCCCCCCCCCCCCCCSc1ccc(S(=O)(=O)N(C)C)cc1N', 'growth inhibition', -36.8),
  ('COc1ccc(N/N=C2\CCOc3ccc(C)cc3C2=O)cc1', 'growth inhibition', 27.8),
  ('Cc1cc(CC(N)C(=O)O)ccc1O (centres undefined)', 'growth inhibition', 7.05),
  ('CCN(CC)Cc1cc(Nc2ncnc3sc(C)c(C)c23)ccc1O', 'growth inhibition', 9.95),
  ('Clc1ccc(NC2=NCCN=C(Nc3ccc(Cl)c(Cl)c3)SS2)cc1Cl', 'growth inhibition', -21.4),
  ('CCOC(=O)C1SC(=Nc2ccc(Cl)c(Cl)c2)N=C1C (centres undefined)', 'growth inhibition', -2.8),
  ('Cc1cnc(Sc2ncccc2[N+](=O)[O-])nc1', 'growth inhibition', 5.75),
  ('CCOC(=O)CCC(NC(=O)C(CCC(=O)O)NC(=O)OCc1ccccc1)C(=O)OCC (stereo not drawn) (Cbz-Glu-Glu(OEt)-OEt; configuration not given here)', 'growth inhibition', -6.25),
  ('COc1cc([N+](=O)[O-])c(S(=O)(=O)O)cc1-n1nc(-c2ccccc2)n[n+]1-c1cc(S(=O)(=O)[O-])c([N+](=O)[O-])cc1OC', 'growth inhibition', 4.15),
  ('CC(=O)Nc1ccc(S(=O)(=O)N2c3ccccc3Sc3ccccc32)cc1', 'growth inhibition', -5.9),
  ('O=C(N/N=C/c1ccc(O)cc1)C1CCCO1 (centres undefined)', 'growth inhibition', 26.5),
  ('CCOC(=O)c1sc(SSc2nc(C)c(C(=O)OCC)s2)nc1C', 'growth inhibition', -4.7),
  ('CCCCCC(=C/c1ccccc1)/C=N/N1CCN(/N=C/C(=C/c2ccccc2)CCCCC)CC1', 'growth inhibition', 10.8),
  ('CCCCC(C)C(C)O (centres undefined)', 'growth inhibition', -62.1),
  ('CC1(C)COC(c2ccc(C(C)(C)C)cc2C(O)(c2cc(C(C)(C)C)ccc2C2=NC(C)(C)CO2)c2cc(C(C)(C)C)ccc2C2=NC(C)(C)CO2)=N1', 'growth inhibition', -4.2),
  ('NCCCCC(NC(=O)C(N)Cc1cnc[nH]1)C(=O)O (stereo not drawn) (H-His-Lys-OH; configuration not given here)', 'growth inhibition', -5.75),
  ('COC(=O)/C=C1\CCC(C)O1 (centres undefined)', 'growth inhibition', -26.6),
  ('C=C1CCCCCCCCCCC12SCCCS2', 'growth inhibition', 7.6);

====

# experiment: NCI Yeast Anticancer Drug Screen. Data for the mec2-1 strain (AID 157)
# conditions: S. cerevisiae mec2-1 strain, at 50.0 µM, stronger effect = higher value
Compounds without any hit were thinned out: in the full panel of roughly 79,000, 15% have a hit.
parameter_measured: growth inhibition (%)

INSERT INTO assay_data (molecule, unit_symbol, value_reported) VALUES
  ('Cc1ccc2c(c1)CN(C)CO2', '%', 6.45),
  ('Cc1c([O-])[n+]2cccc3ccn(c1=O)c32', '%', -13.6),
  ('CC(=O)c1cc(C(C)=O)c(CC(=O)C(=O)Nc2cccc(C)c2C)nc1CC(=O)C(=O)Nc1cccc(C)c1C', '%', -6.3),
  ('CCOC(=O)c1cnc(=S)[nH]c1N', '%', -8.35),
  ('CN1C(NC(=O)C(C)(C)O)C(C)(C)C(C)(C)C1NC(=O)C(C)(C)O (configuration not stated)', '%', 2),
  ('O=C1O/C(=C(\Br)c2cccc3ccccc23)c2ccccc21', '%', -30.4),
  ('CCN(CC)C(=S)Nc1ccc(-c2cc3ccc(O)cc3oc2=O)cc1', '%', 11.6);
